# Test system: PPARg homodimer (NR concentration 180 nM)
# protocol description: PBM binding z-score (relative to random genomic background probes); higher = stronger binding; sequences stand for … in GC…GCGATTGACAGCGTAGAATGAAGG
result type: PBM binding z-score
// return a plain number; no unit text

CGTCCAAGGTCAAGGTCAGAGAAAGAGACTCGAA; 3.52
CCTAATGGGCCAAAAAGGTCATTGATGCCGATAA; 3.03

Please turn your attention to the following entry.
Ask | Please give the measured PBM binding z-score for this sequence: `CCTACTGGGCCAAAGGTCATGGATTCCAATGCTC`
Reply | 2.93

---

# System: PPARg:RXRa (NR concentration 180 nM, RXRa partner concentration 90 nM)
# protocol description: PBM binding z-score (relative to random genomic background probes); higher = stronger binding; sequences stand for … in GC…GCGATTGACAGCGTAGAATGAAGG
Is PBM binding z-score at least 1? Then condition met. If not, condition not met.

Answered examples (2):
TCTTGTAAATCAGCAGGTTAAGAAAGCTGGCCAA; condition not met
GCTACAGGGTCAGCTAGAGGCCAGAGTATGGAAA; condition met

Ask | I'd appreciate it if you could say whether `ATCTCTAGGTAAGACTCAGTTCAGTGACGAACGC` has PBM binding z-score at least equal to 1.
Reply | condition not met

Ask | I'd appreciate it if you could say whether `AATACAGGGTCAACGTAGGCCAGAGTACGCACAG` has PBM binding z-score at least equal to 1.
Reply | condition met

Ask | I'd appreciate it if you could say whether `CTCGACAGGTCGTGCTCAGGTGAGTATACCAAAC` has PBM binding z-score at least equal to 1.
Reply | condition not met

---

# System: RARb homodimer (NR concentration 270 nM)
# protocol description: PBM binding z-score (relative to random genomic background probes); higher = stronger binding; sequences stand for … in GC…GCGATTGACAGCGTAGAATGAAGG
result type: PBM binding z-score
// return a plain number; no unit text

See these solved cases before continuing.
CCAGACAGGTGAGAAGGTAACACAGCCTCGATTA; 1.03
CAAACTAGGTCAAGAGGTTAAAGTCCGCTTCCCG; 4.23
GCTTGTAGAGCAAGGTTAAGAAAGACTAAGCTAA; -0.118
TCACGGAGGACACGAAGGTCAGAGCTTTCCAGAG; 3.7
ATCTCTAGGTCAGACTCAGTTCAGTGAAGAACGC; 3.14
ATCGAAAGGTTGACGAGGTGAGTATACACCGTTT; 1.28

Ask | Please give the measured PBM binding z-score for this sequence: `ATATGTAGATTATCGGGTCATTCAGTTTGCGCAT`
Reply | 2.3

Ask | Please give the measured PBM binding z-score for this sequence: `GCTCGGAGGTCAAGGTCAGAGCTTTGTCCGTAGA`
Reply | 5.13

Ask | Please give the measured PBM binding z-score for this sequence: `TAGCCTAGGTCAAGGGCCAGTATACCACGCGAAC`
Reply | 3.4

Ask | Please give the measured PBM binding z-score for this sequence: `ACAGACATGTGAGTGAAGGTAACTCAGCTGGACG`
Reply | -0.584

Ask | Please give the measured PBM binding z-score for this sequence: `ACTAGCAGGCCAAGTTTGGATCACTCAAACAAAG`
Reply | -0.0539

Ask | Please give the measured PBM binding z-score for this sequence: `TCTATTAGTTGATGGGCAACCGACGAGTCCGTTT`
Reply | -0.181

Ask | Please give the measured PBM binding z-score for this sequence: `AGAACGAGGGCTATGAGTTGATAGCACGGGTGGC`
Reply | -0.36

Ask | Please give the measured PBM binding z-score for this sequence: `GTAACAAGGTGAATAGGTCGTTGATGAGTAGGCG`
Reply | 1.9

Ask | Please give the measured PBM binding z-score for this sequence: `TCGTATAGGTAAAAGGTGAAAGTCGGTGTGGTAA`
Reply | 2.13

Ask | Please give the measured PBM binding z-score for this sequence: `CGAACGAGGCCATGAGTTGATAGCAAATGCCGAT`
Reply | 0.354

Ask | Please give the measured PBM binding z-score for this sequence: `TGTCAAAGTTCAAAGGTAGCGTAAGTATCCACAC`
Reply | 3.86

Ask | Please give the measured PBM binding z-score for this sequence: `GCGGCTGGGGCATCAGCAGGTTACCATAACTTAA`
Reply | 1.16
